Biological target: recombinant pentameric gH complex (Towne strain) (human cytomegalovirus, Towne strain) (UniProt P17176)
Sequence (P17176 30-715, one chain of several): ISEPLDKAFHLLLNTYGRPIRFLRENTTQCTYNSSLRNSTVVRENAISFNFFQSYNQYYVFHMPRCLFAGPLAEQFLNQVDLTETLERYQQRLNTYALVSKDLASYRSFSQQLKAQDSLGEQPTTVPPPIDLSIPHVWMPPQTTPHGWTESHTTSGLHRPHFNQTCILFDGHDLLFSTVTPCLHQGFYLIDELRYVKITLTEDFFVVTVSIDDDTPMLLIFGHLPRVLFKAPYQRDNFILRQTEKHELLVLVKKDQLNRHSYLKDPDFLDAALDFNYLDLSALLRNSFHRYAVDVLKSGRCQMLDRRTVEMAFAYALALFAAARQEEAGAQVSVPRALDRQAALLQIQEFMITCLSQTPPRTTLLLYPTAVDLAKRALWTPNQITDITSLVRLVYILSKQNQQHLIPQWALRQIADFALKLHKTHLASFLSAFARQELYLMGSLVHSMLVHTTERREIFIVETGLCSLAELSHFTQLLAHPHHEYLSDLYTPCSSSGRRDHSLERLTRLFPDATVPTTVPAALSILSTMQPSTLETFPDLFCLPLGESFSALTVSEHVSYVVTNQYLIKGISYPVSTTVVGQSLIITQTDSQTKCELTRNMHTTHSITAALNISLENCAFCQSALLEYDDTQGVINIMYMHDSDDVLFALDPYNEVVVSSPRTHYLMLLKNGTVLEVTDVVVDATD
Experiment: BLI competition on His-pentamer; competitor (antibody 2): 1-150
Below, each of the binders is paired with its reported Pair-wise inhibition (%) value.
Measured Quantity: Pair-wise inhibition (%)

>>> reported("2-18 (antibody, V domains shown) VH: EVQLVQSGGGLVQPGGSLRVSCAASGFSFSDHDMDWVRQAPGKGFEWVGRSRNKDYSSTTEYAASVRGRFTISRHTSEDLLYLELNTVKTEDTAVYFCARGPHHSDRSGYYGGTFDIWGQGTMVTVSS VL: DIQMTQSPSSVSASVGDRVIITCRASQGISSWLAWYQQKPGRAPRLLIYDASTLESGVPSRFSGRGSGTEFTLTINSLQPEDFATYYCQQGNMFPLTFGGGTKVEIK")
12
>>> reported("3-16 (antibody, V domains shown) VH: QVQVVQSGAEVKKPGASVMVSCKTSGYRFTIYSIAWMRQAPGQGLEWMGSINTYNGNTKYAEKFQGRVTMSRDTSTSTAYMEVRSLGSADTAMYYCARDAENWGFFDDWGQGTLVTVSS VL: EIVLTQSPGTVSLSPGERVTLSCRASQSVGRHLAWYQQKPGQPPRLLIYGASTRATGVPDRFSGSGSETEFTLAISSLQSEDFALYYCQQYNTWPYTFGQGTKLEIK")
-22
